Data credit: ChEMBL document CHEMBL1255225

Tested on: Duck hepatitis B virus
protocol.summary: Antiviral activity against DHBV infected in duck hepatocytes assessed as inhibition of viral DNA replication at 10 ug/ml
Type: functional, Hepatocyte
Parameters: scale not given: the % may be the effect or the level left
For each of the molecules below, state its Activity.
Report as a plain number; the unit % is understood.

Per the reported Duck hepatitis B virus data, O=c1[nH]c(=O)n([C@H]2C[C@@H](O)[C@@H](CO)O2)cc1Cl has Activity of 25

I looked up Cc1cn([C@@H]2O[C@H](CO)C=C2F)c(=O)[nH]c1=O and its Activity for Duck hepatitis B virus was 94

Activity on Duck hepatitis B virus for CCc1cn([C@@H]2O[C@H](CO)C=C2F)c(=O)[nH]c1=O is 50

Activity of Cc1cn([C@@H]2O[C@H](CO)[C@H](O)[C@H]2F)c(=O)[nH]c1=O , assay on Duck hepatitis B virus, is 72

// molecule Cc1cn([C@H]2C[C@@H](O)[C@@H](CO)O2)c(=O)[nH]c1=O , assay Duck hepatitis B virus, Activity value: 65

Bench note, Duck hepatitis B virus: Nc1ncnc2c1ncn2[C@H]1CC(O)[C@@H](CO)O1 (single isomer, unassigned) , Activity reads 40

Lab entry: Duck hepatitis B virus assay, molecule O=c1[nH]c(=O)n([C@H]2CC(O)[C@@H](CO)O2)cc1C(F)(F)F (single isomer, unassigned) , Activity = 70

Field Activity (Duck hepatitis B virus), entry O=c1ccn([C@@H]2O[C@H](CO)[C@H](O)[C@H]2F)c(=O)[nH]1 : 50

Measured Activity (Duck hepatitis B virus), entry O=c1ccn([C@@H]2O[C@H](CO)[C@@H](F)[C@@H]2O)c(=O)[nH]1 : 25
